Biological target: GST-Dm-Relish (Drosophila melanogaster, UniProt Q94527 99-473)
Sequence: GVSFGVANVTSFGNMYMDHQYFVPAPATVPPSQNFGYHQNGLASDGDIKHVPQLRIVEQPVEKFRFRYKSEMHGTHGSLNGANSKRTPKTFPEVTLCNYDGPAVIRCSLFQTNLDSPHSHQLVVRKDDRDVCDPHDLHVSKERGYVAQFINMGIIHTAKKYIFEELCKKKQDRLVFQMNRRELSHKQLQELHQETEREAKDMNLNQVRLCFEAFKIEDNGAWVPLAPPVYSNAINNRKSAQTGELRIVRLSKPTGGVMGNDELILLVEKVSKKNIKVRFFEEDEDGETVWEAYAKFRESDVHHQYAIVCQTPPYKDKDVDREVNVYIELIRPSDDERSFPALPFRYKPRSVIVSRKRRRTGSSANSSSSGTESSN
Test: protein-binding microarray (PBM); PBM: ~300 nM protein, 6 mM HEPES pH 7.8, 80 mM KCl, 0.5 mM EDTA, 0.5 mM EGTA, 6% glycerol, 35 ng/ul poly-dIdC, 1% milk, 1 h, room temperature; Ap Aiptasia and Nv Nematostella (sea anemones) / Co Capsaspora / Aq Amphimedon (sponge) / Dm Drosophila / Hu human; RHD is the Rel homology domain; high values mean tight binding
Conditions: dsDNA, one strand shown
Kindly state binding signal for each of the entries shown.
Remember to follow the number with its unit.

Provide measured binding signal value, entry: "CCGATTAACATCAGGAAAAAAACTGATGTTAATCGGGTCTTGATTCGCTTGACGCTGCTG"
1.23 z-score

Provide measured binding signal value, entry: "CCGATTAACATCAGGCCATCCCCTGATGTTAATCGGGTCTTGATTCGCTTGACGCTGCTG"
7.89 z-score

Provide measured binding signal value, entry: "CCGATTAACATCAGGGAAACCACTGATGTTAATCGGGTCTTGATTCGCTTGACGCTGCTG"
8.4 z-score

Provide measured binding signal value, entry: "CCGATTAACATCAAGGGGGAGAATGATGTTAATCGGGTCTTGATTCGCTTGACGCTGCTG"
2.2 z-score

Provide measured binding signal value, entry: "CCGATTAACATCAGGGCAGCCCCTGATGTTAATCGGGTCTTGATTCGCTTGACGCTGCTG"
4.16 z-score

Provide measured binding signal value, entry: "CCGATTAACATCACGGGCATTCCTGATGTTAATCGGGTCTTGATTCGCTTGACGCTGCTG"
2.37 z-score

Provide measured binding signal value, entry: "CCGATTAACATCAGTATTTTCCATGATGTTAATCGGGTCTTGATTCGCTTGACGCTGCTG"
1.33 z-score

Provide measured binding signal value, entry: "CCGATTAACATCAGGGAAACTCATGATGTTAATCGGGTCTTGATTCGCTTGACGCTGCTG"
1.31 z-score

Provide measured binding signal value, entry: "CCGATTAACATCAGGAATGTACATGATGTTAATCGGGTCTTGATTCGCTTGACGCTGCTG"
4.12 z-score

Provide measured binding signal value, entry: "CCGATTAACATCAGGGTACTACCTGATGTTAATCGGGTCTTGATTCGCTTGACGCTGCTG"
1.62 z-score

Provide measured binding signal value, entry: "CCGATTAACATCAAGGGGTTTCCTGATGTTAATCGGGTCTTGATTCGCTTGACGCTGCTG"
7.98 z-score

Provide measured binding signal value, entry: "CCGATTAACATCACATTGGGAAATGATGTTAATCGGGTCTTGATTCGCTTGACGCTGCTG"
1.18 z-score

Provide measured binding signal value, entry: "CCGATTAACATCAATTACCCCCCTGATGTTAATCGGGTCTTGATTCGCTTGACGCTGCTG"
4.49 z-score

Provide measured binding signal value, entry: "CCGATTAACATCAGGGAACAACCTGATGTTAATCGGGTCTTGATTCGCTTGACGCTGCTG"
4.7 z-score

Provide measured binding signal value, entry: "CCGATTAACATCAAGTATCCCCCTGATGTTAATCGGGTCTTGATTCGCTTGACGCTGCTG"
4.38 z-score

Provide measured binding signal value, entry: "CCGATTAACATCAAGGGCTTTCCTGATGTTAATCGGGTCTTGATTCGCTTGACGCTGCTG"
2.98 z-score

Provide measured binding signal value, entry: "CCGATTAACATCACGTATTTTCCTGATGTTAATCGGGTCTTGATTCGCTTGACGCTGCTG"
1.2 z-score

Provide measured binding signal value, entry: "CCGATTAACATCAAGAAAGTCCCTGATGTTAATCGGGTCTTGATTCGCTTGACGCTGCTG"
7.13 z-score

Provide measured binding signal value, entry: "CCGATTAACATCAGGAATTTTACTGATGTTAATCGGGTCTTGATTCGCTTGACGCTGCTG"
1.49 z-score

Provide measured binding signal value, entry: "CCGATTAACATCAAAGAAGTCCCTGATGTTAATCGGGTCTTGATTCGCTTGACGCTGCTG"
5.18 z-score

Provide measured binding signal value, entry: "CCGATTAACATCAGCAAATTCCCTGATGTTAATCGGGTCTTGATTCGCTTGACGCTGCTG"
4.19 z-score

Provide measured binding signal value, entry: "CCGATTAACATCACGGGCAGTGGTGATGTTAATCGGGTCTTGATTCGCTTGACGCTGCTG"
1.02 z-score

Provide measured binding signal value, entry: "CCGATTAACATCAAGGAACCCCCTGATGTTAATCGGGTCTTGATTCGCTTGACGCTGCTG"
10.4 z-score

Provide measured binding signal value, entry: "CCGATTAACATCAGGGATTCACCTGATGTTAATCGGGTCTTGATTCGCTTGACGCTGCTG"
9.89 z-score

Provide measured binding signal value, entry: "CCGATTAACATCAAGGGGGAAACTGATGTTAATCGGGTCTTGATTCGCTTGACGCTGCTG"
4.03 z-score

Provide measured binding signal value, entry: "CCGATTAACATCAACTCCCCCCATGATGTTAATCGGGTCTTGATTCGCTTGACGCTGCTG"
4.31 z-score

Provide measured binding signal value, entry: "CCGATTAACATCACGTGTTTCCCTGATGTTAATCGGGTCTTGATTCGCTTGACGCTGCTG"
3.51 z-score

Provide measured binding signal value, entry: "CCGATTAACATCAACAATTTCCCTGATGTTAATCGGGTCTTGATTCGCTTGACGCTGCTG"
2.52 z-score

Provide measured binding signal value, entry: "CCGATTAACATCAGGGTGTAGTTTGATGTTAATCGGGTCTTGATTCGCTTGACGCTGCTG"
1.07 z-score

Provide measured binding signal value, entry: "CCGATTAACATCAATAAATTTCCTGATGTTAATCGGGTCTTGATTCGCTTGACGCTGCTG"
1.55 z-score

Provide measured binding signal value, entry: "CCGATTAACATCAAGTAAATCCCTGATGTTAATCGGGTCTTGATTCGCTTGACGCTGCTG"
7.89 z-score

Provide measured binding signal value, entry: "CCGATTAACATCAGATACTCCCCTGATGTTAATCGGGTCTTGATTCGCTTGACGCTGCTG"
1.86 z-score

Provide measured binding signal value, entry: "CCGATTAACATCAGGGGGCGCACTGATGTTAATCGGGTCTTGATTCGCTTGACGCTGCTG"
4.13 z-score

Provide measured binding signal value, entry: "CCGATTAACATCAAGTATTTTCCTGATGTTAATCGGGTCTTGATTCGCTTGACGCTGCTG"
1.84 z-score

Provide measured binding signal value, entry: "CCGATTAACATCAGGGAATACACTGATGTTAATCGGGTCTTGATTCGCTTGACGCTGCTG"
2.61 z-score

Provide measured binding signal value, entry: "CCGATTAACATCAGCATCCCCCCTGATGTTAATCGGGTCTTGATTCGCTTGACGCTGCTG"
4.52 z-score
